# Tested on: SW-620
# Assay info: NCI tumour cell line growth inhibition, 48 h
Activity calls are given as the source filed them. Cut-off read from the data, not from the text of the source: active = GI50 up to about 1.1 µM and inactive = higher.
Readout kind: GI50

>  <Molecule>
CSc1nc(SC)c2c(C#N)n[nH]c2n1

>  <Test value>
> 100 µM (inactive)

$$$$
>  <Molecule>
COc1cc(/C=C2\N=C(c3ccccc3)N(c3nc4c(OC)ccc(OC)c4s3)C2=O)ccc1O

>  <Test value>
42.2 µM (inactive)

$$$$
>  <Molecule>
OC(CC(O)(C(F)(F)F)C(F)(F)F)C(O)c1ccco1 (configuration not stated)

>  <Test value>
> 10 µM (inactive)

$$$$
>  <Molecule>
O=c1[nH]cc(COCC(O)CO)c(=O)[nH]1 (configuration not stated)

>  <Test value>
> 100 µM (inactive)

$$$$
>  <Molecule>
CC1CCC/C1=C(/I)C(=O)c1ccccc1 (configuration not stated)

>  <Test value>
53.1 µM (inactive)

$$$$
>  <Molecule>
CC(NC(=N)N)C(=O)O (configuration not stated)

>  <Test value>
> 100 µM (inactive)

$$$$
>  <Molecule>
O=C(O)Cc1cccnc1

>  <Test value>
> 100 µM (inactive)

$$$$
>  <Molecule>
COCO[C@@H]1C[C@H]2C(=O)N(COC)c3ccccc3C(=O)N2C1

>  <Test value>
> 100 µM (inactive)

$$$$
>  <Molecule>
COc1ccc2[nH]c3c(C)c4ncccc4c(C)c3c2c1

>  <Test value>
1.98 µM (inactive)

$$$$
>  <Molecule>
Nc1nc(=O)c(/N=N/c2ccccc2)c(N)[nH]1

>  <Test value>
78.2 µM (inactive)

$$$$

Hi team, please reply with GI50 for each item in this list.
1. CC1C(O)Oc2cc3c(cc2C1c1ccccc1O)OCO3 (configuration not stated)
2. Cc1nc2ccccc2c(=O)n1NC(=O)Cc1ccccc1

Found:
1. 39.1 µM (inactive)
2. > 100 µM (inactive)

* * *

# Test system: U-251
# Assay info: NCI tumour cell line growth inhibition, 48 h
Calls of active or inactive are those of the source. Cut-off read from the data, not from the text of the source: active = GI50 up to about 1.1 µM and inactive = higher.
What GI50 was measured for each of the following?

>  <Molecule>
Cc1c2c(c(C)c3c[n+](C)ccc13)Oc1ccccc1O2

>  <Target>
U-251

>  <GI50>
1.21 µM (inactive)

$$$$
>  <Molecule>
COc1nc(NC2OC(COC(C)=O)C(OC(C)=O)C(OC(C)=O)C2OC(C)=O)c(/N=C/C=N/c2c(NC3OC(COC(C)=O)C(OC(C)=O)C(OC(C)=O)C3OC(C)=O)nc(OC)[nH]c2=O)c(=O)[nH]1 (stereo not given)

>  <Target>
U-251

>  <GI50>
> 100 µM (inactive)

$$$$
>  <Molecule>
O=C1NC(=O)C(=Cc2c3ccccc3cc3ccccc23)C(=O)N1

>  <Target>
U-251

>  <GI50>
> 100 µM (inactive)

$$$$
>  <Molecule>
N=C(CC(=O)Nc1ccccn1)c1ccccc1

>  <Target>
U-251

>  <GI50>
> 100 µM (inactive)

$$$$

Turning to the following molecule.
Lookup: Please look up its GI50: `Cn1c2ccccc2n2c3ncccc3/c(=N/CCCC(=O)O)c(C#N)c12`
Found: > 100 µM (inactive)

* * *

# Test system: SK-MEL-28
# Assay info: NCI tumour cell line growth inhibition, 48 h
Active and inactive are the calls of the source. Rule as the data show it: active = GI50 up to about 1.1 µM and inactive = higher.
Readout kind: GI50

Consider the reported GI50 for these compounds:
>  <Compound>
c1ccc(-c2cn3nc(N4CCOCC4)sc3n2)cc1

>  <Target>
SK-MEL-28

>  <GI50>
> 100 µM (inactive)

$$$$
>  <Compound>
COC(=O)CCC1=NCC(C)(C)O1

>  <Target>
SK-MEL-28

>  <GI50>
> 10 µM (inactive)

$$$$
>  <Compound>
C=C1CC(C)(COc2ccc3c(C)cc(=O)oc3c2)OC1=O (configuration not stated)

>  <Target>
SK-MEL-28

>  <GI50>
2.72 µM (inactive)

$$$$
>  <Compound>
COCCOCCOC1=CC(=O)c2c(O)ccc(O)c2C1=O

>  <Target>
SK-MEL-28

>  <GI50>
1.54 µM (inactive)

$$$$
>  <Compound>
Cc1nc2cc(F)c(F)cc2[nH]c1=O

>  <Target>
SK-MEL-28

>  <GI50>
> 100 µM (inactive)

$$$$
>  <Compound>
O=C(O)Cc1cccnc1

>  <Target>
SK-MEL-28

>  <GI50>
> 100 µM (inactive)

$$$$

Turning to the following compound.
Lookup: Please look up its GI50: `NC1=CN(Cc2ccccc2)C2=N/C(=C\c3ccco3)C(=O)N12`
Found: > 100 µM (inactive)

* * *

What GI50 was measured for each of the following?
# Tested on: M19-MEL
# Assay info: NCI tumour cell line growth inhibition, 48 h
Calls of active or inactive are those of the source. Cut-off read from the data, not from the text of the source: active = GI50 up to about 1.1 µM and inactive = higher.

>  <Molecule>
C=CCc1cc(-c2cc(CC=C)c(O)c(CN(CCCl)CCCl)c2)cc(CN(CCCl)CCCl)c1O

>  <Target>
M19-MEL

>  <GI50>
14.5 µM (inactive)

$$$$
>  <Molecule>
CCOC(=O)C1=C(C)Nc2ccccc2S1

>  <Target>
M19-MEL

>  <GI50>
> 100 µM (inactive)

$$$$
>  <Molecule>
CCCCCCCCCCCCCC(=O)CBr

>  <Target>
M19-MEL

>  <GI50>
9.25 µM (inactive)

$$$$
>  <Molecule>
CCCCCNC(=O)C1C(=O)N(CCCCC)C(=O)/C1=N\N (stereo not given)

>  <Target>
M19-MEL

>  <GI50>
86.5 µM (inactive)

$$$$

Hi team, please reply with GI50 for each item in this list.
1. OC12CCC3(OC4CCCCO4)c4ccccc4C3C1c1ccccc12 (stereo not given)
2. CC(=O)OCC(OC(C)=O)C(OC(C)=O)C(OC(C)=O)C(=O)CNn1c(-c2ccc(C)cc2)nc2ccccc2c1=O (stereo not given)
3. O=C1C(=Cc2ccc(F)cc2)C(=O)c2ccccc21

Found:
1: 90.4 µM (inactive); 2: > 100 µM (inactive); 3: 96.2 µM (inactive)

* * *

What GI50 was measured for each of the following?
# Test system: TK-10
# Assay info: NCI tumour cell line growth inhibition, 48 h
Calls of active or inactive are those of the source. No stated cut-off is given here; in the data, active = GI50 up to about 1.1 µM and inactive = higher.

>  <Compound>
C=C1CC(COc2ccc3c(C)cc(=O)oc3c2)(c2ccccc2)OC1=O (stereo not given)

>  <GI50>
1.62 µM (inactive)

$$$$
>  <Compound>
CO[C@@]1(c2ccccc2)O[C@H]2OCCC2[C@H]1c1ccc(Cl)cc1 (stereo not given in full)

>  <GI50>
40.8 µM (inactive)

$$$$
>  <Compound>
Cc1cc(N(CCCCl)CCCCl)ccc1/C=N/c1cccc(Cl)c1

>  <GI50>
10.6 µM (inactive)

$$$$
>  <Compound>
CC1=CC(=O)c2ccc3c4ccccc4n(C)c3c2C1=O

>  <GI50>
> 100 µM (inactive)

$$$$
>  <Compound>
CN(C)CCS/C(=N\c1ccccc1)n1cccc1

>  <GI50>
> 100 µM (inactive)

$$$$
>  <Compound>
Cc1ccc(-c2cc(-c3ccc(Cl)cc3)nc(/N=C3\C(=O)N(CN(C)C)c4ccccc43)n2)cc1

>  <GI50>
85.3 µM (inactive)

$$$$
>  <Compound>
O=C(N/N=C(COc1ccccc1)\N=C\c1cccnc1)c1ccncc1

>  <GI50>
> 100 µM (inactive)

$$$$
>  <Compound>
CC(=O)OCC1OC(n2c(-c3ccc(Cl)cc3)cc(-c3ccccc3)c(C#N)c2=S)C(OC(C)=O)C(OC(C)=O)C1OC(C)=O (stereo not given)

>  <GI50>
27.4 µM (inactive)

$$$$

Hi team, please reply with GI50 for each item in this list.
1. CCNC(=S)N/N=C/c1cc([N+](=O)[O-])ccc1O
2. COc1ccc(C2c3cc4c(cc3OC(N3CCOCC3)C2C)OCO4)c(OC)c1 (stereo not given)

Found:
16.2 µM (inactive)
7.78 µM (inactive)

* * *

# Tested on: OVCAR-3
# Assay info: NCI tumour cell line growth inhibition, 48 h
Calls of active or inactive are those of the source. Rule as the data show it: active = GI50 up to about 1.1 µM and inactive = higher.
What GI50 was measured for each of the following?

Consider the reported GI50 for these compounds:
>  <Compound>
C=CCc1cc(OC)c(O)c(C(=O)/C=C/c2ccc(OC)c(OC)c2)c1

>  <Target>
OVCAR-3

>  <GI50>
19.3 µM (inactive)

$$$$
>  <Compound>
O=C(NCCCCCCNC(=O)NC1OCC(O)C(O)C1O)NC1OCC(O)C(O)C1O (stereo not given)

>  <Target>
OVCAR-3

>  <GI50>
> 100 µM (inactive)

$$$$
>  <Compound>
CC(OP(=O)(O)O)C(N)C(=O)O (stereo not given)

>  <Target>
OVCAR-3

>  <GI50>
> 100 µM (inactive)

$$$$
>  <Compound>
CN(C)/N=N/c1cccc(C(N)=O)c1

>  <Target>
OVCAR-3

>  <GI50>
> 100 µM (inactive)

$$$$

Lookup: Please look up its GI50: `C1=CC2(C=CC13O[C@H](C1CCCCC1)[C@@H](C1CCCCC1)O3)O[C@H](C1CCCCC1)[C@@H](C1CCCCC1)O2`
Found: > 50 µM (inactive)
